Origin of values: the supplement of paper PMC7877785

# assayExplanation: self-splicing fitness, log relative to wild type (ln ratio); higher = more splicing; Tetrahymena group I intron in knt gene, E. coli kanamycin selection, DiMSum; sequences stand for … in CUCUCU…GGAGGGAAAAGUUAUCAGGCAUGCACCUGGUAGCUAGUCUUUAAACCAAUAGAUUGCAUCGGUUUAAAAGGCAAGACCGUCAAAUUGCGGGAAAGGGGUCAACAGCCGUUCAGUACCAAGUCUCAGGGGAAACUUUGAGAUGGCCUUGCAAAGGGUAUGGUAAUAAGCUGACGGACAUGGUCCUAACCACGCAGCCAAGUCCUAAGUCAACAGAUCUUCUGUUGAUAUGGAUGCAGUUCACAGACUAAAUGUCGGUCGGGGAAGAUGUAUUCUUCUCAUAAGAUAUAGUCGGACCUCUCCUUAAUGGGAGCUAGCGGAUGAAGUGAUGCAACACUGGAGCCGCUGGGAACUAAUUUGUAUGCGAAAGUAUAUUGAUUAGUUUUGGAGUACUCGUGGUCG;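 further: selection with 25 µg/mL kanamycin versus none on LB agar overnight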
# experimentalParameters: 30 °C

{"sequenceChain": "AAUCAGCAAUAUUACGACAC", "self-splicing fitness (ln)": -0.56}
{"sequenceChain": "AUCUAGCAAUAUUACGAGUU", "self-splicing fitness (ln)": -2.66}
{"sequenceChain": "CCAAAGCAAUAUUACGAGAG", "self-splicing fitness (ln)": -2.24}
{"sequenceChain": "GCGGAGCAAUAUUACGCUAU", "self-splicing fitness (ln)": -3.16}
{"sequenceChain": "UCGUAGCAAUAUUACGGCCG", "self-splicing fitness (ln)": -1.51}
{"sequenceChain": "UCGCAGCAAUAUUACGCAUA", "self-splicing fitness (ln)": -1.94}
{"sequenceChain": "ACCGAGCAAUAUUACGCAGA", "self-splicing fitness (ln)": -2.2}
{"sequenceChain": "GGGUAGCAAUAUUACGAAUA", "self-splicing fitness (ln)": -0.00785}
{"sequenceChain": "UUUCAGCAAUAUUACGCGUC", "self-splicing fitness (ln)": -3.56}
{"sequenceChain": "GGUUAGCAAUAUUACGACGC", "self-splicing fitness (ln)": 0.551}
{"sequenceChain": "ACCCAGCAAUAUUACGGGAC", "self-splicing fitness (ln)": -2.71}
{"sequenceChain": "CUUAAGCAAUAUUACGACCU", "self-splicing fitness (ln)": -1.75}
{"sequenceChain": "UUUCAGCAAUAUUACGUUGG", "self-splicing fitness (ln)": -4.07}
{"sequenceChain": "AUGGAGCAAUAUUACGGCUA", "self-splicing fitness (ln)": -0.572}
{"sequenceChain": "GGUCAGCAAUAUUACGAAAU", "self-splicing fitness (ln)": -1.15}
{"sequenceChain": "CUGGAGCAAUAUUACGUUAA", "self-splicing fitness (ln)": -3.18}
{"sequenceChain": "AAGCAGCAAUAUUACGAGCC", "self-splicing fitness (ln)": -3.37}
{"sequenceChain": "ACUAAGCAAUAUUACGACAA", "self-splicing fitness (ln)": -1.63}
{"sequenceChain": "AAUUAGCAAUAUUACGGUCA", "self-splicing fitness (ln)": 0.31}
{"sequenceChain": "GGCUAGCAAUAUUACGGGGU", "self-splicing fitness (ln)": -2.25}
{"sequenceChain": "CAAGAGCAAUAUUACGCACA", "self-splicing fitness (ln)": -2.72}
{"sequenceChain": "GGAUAGCAAUAUUACGCAUA", "self-splicing fitness (ln)": -1.88}
{"sequenceChain": "GGGAAGCAAUAUUACGAGAA", "self-splicing fitness (ln)": -2.16}
{"sequenceChain": "GAAGAGCAAUAUUACGAGAU", "self-splicing fitness (ln)": -3.35}
{"sequenceChain": "UUGUAGCAAUAUUACGUCAU", "self-splicing fitness (ln)": -2.87}
{"sequenceChain": "CCGGAGCAAUAUUACGGUCG", "self-splicing fitness (ln)": -1.22}
{"sequenceChain": "AGUAAGCAAUAUUACGGCGA", "self-splicing fitness (ln)": -0.491}
{"sequenceChain": "AGCAAGCAAUAUUACGGUAA", "self-splicing fitness (ln)": -2.53}
{"sequenceChain": "GCUGAGCAAUAUUACGUCGA", "self-splicing fitness (ln)": -1.34}
{"sequenceChain": "UUCGAGCAAUAUUACGGCAA", "self-splicing fitness (ln)": -0.587}
{"sequenceChain": "CAUAAGCAAUAUUACGACGA", "self-splicing fitness (ln)": -2.01}
{"sequenceChain": "GCGUAGCAAUAUUACGUAGG", "self-splicing fitness (ln)": -3.73}
{"sequenceChain": "UAACAGCAAUAUUACGACAA", "self-splicing fitness (ln)": -0.503}
{"sequenceChain": "GGUGAGCAAUAUUACGCCAG", "self-splicing fitness (ln)": -2.86}

###

# assayExplanation: self-splicing fitness, log relative to wild type (ln ratio); higher = more splicing; Tetrahymena group I intron in knt gene, E. coli kanamycin selection, DiMSum; sequences stand for … in CUCUCU…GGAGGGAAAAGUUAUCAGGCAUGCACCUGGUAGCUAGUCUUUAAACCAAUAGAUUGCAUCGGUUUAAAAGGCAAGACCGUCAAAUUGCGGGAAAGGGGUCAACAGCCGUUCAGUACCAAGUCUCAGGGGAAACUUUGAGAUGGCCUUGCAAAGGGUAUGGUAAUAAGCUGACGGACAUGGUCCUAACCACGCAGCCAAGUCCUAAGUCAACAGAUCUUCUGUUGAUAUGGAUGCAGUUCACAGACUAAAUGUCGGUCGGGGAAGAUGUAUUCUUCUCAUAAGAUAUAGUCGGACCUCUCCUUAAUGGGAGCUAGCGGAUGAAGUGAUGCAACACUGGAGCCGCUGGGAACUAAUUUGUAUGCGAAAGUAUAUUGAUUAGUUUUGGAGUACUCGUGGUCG
# experimentalParameters: 37 °C
Think of -2 as a floor: if self-splicing fitness (ln) stands on it or above, it is yes (1); beneath it, no (0).

{"sequenceChain": "GAUAAGCAAUAUUACGAAAG", "groupLabel": "yes (1)"}
{"sequenceChain": "AAGUAGCAAUAUUACGCACU", "groupLabel": "yes (1)"}
{"sequenceChain": "GGGUAGCAAUAUUACGAUGC", "groupLabel": "yes (1)"}
{"sequenceChain": "CGUGAGCAAUAUUACGGGAG", "groupLabel": "no (0)"}
{"sequenceChain": "GUGUAGCAAUAUUACGUGAA", "groupLabel": "yes (1)"}
{"sequenceChain": "GUCAAGCAAUAUUACGCCGU", "groupLabel": "yes (1)"}
{"sequenceChain": "CUUGAGCAAUAUUACGUAUU", "groupLabel": "no (0)"}
{"sequenceChain": "AUGCAGCAAUAUUACGUAGA", "groupLabel": "yes (1)"}
{"sequenceChain": "UAUUAGCAAUAUUACGAGGG", "groupLabel": "no (0)"}
{"sequenceChain": "AUGCAGCAAUAUUACGGCAC", "groupLabel": "yes (1)"}
{"sequenceChain": "ACGAAGCAAUAUUACGCGAA", "groupLabel": "yes (1)"}
{"sequenceChain": "CAGUAGCAAUAUUACGCAUG", "groupLabel": "no (0)"}
{"sequenceChain": "AUGAAGCAAUAUUACGAGCG", "groupLabel": "yes (1)"}
{"sequenceChain": "UGCGAGCAAUAUUACGAACU", "groupLabel": "yes (1)"}

###

# assayExplanation: self-splicing fitness, log relative to wild type (ln ratio); higher = more splicing; Tetrahymena group I intron in knt gene, E. coli kanamycin selection, DiMSum; sequences stand for … in CUCUCU…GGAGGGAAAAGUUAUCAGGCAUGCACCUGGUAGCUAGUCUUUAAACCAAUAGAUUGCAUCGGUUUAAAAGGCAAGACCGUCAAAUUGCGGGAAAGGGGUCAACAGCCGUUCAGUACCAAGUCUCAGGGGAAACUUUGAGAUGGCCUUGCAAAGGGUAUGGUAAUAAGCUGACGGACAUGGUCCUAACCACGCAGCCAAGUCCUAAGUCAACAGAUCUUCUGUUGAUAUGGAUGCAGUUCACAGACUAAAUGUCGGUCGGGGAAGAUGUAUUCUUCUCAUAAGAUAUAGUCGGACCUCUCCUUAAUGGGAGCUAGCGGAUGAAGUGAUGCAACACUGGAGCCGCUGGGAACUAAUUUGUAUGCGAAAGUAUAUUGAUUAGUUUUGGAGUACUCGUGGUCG
# experimentalParameters: 30 °C
Think of -2 as a floor: if self-splicing fitness (ln) stands on it or above, it is Satisfied; beneath it, Not satisfied.

{"sequenceChain": "CUGAAGCAAUAUUACGUGAG", "groupLabel": "Satisfied"}
{"sequenceChain": "AAUCAGCAAUAUUACGACUA", "groupLabel": "Satisfied"}
{"sequenceChain": "GGGGAGCAAUAUUACGACUC", "groupLabel": "Satisfied"}
{"sequenceChain": "UGUCAGCAAUAUUACGGCGC", "groupLabel": "Not satisfied"}
{"sequenceChain": "ACUGAGCAAUAUUACGUAUU", "groupLabel": "Not satisfied"}
{"sequenceChain": "CGGUAGCAAUAUUACGAGAA", "groupLabel": "Not satisfied"}
{"sequenceChain": "AUGAAGCAAUAUUACGAUCG", "groupLabel": "Satisfied"}
{"sequenceChain": "CGGAAGCAAUAUUACGCGAG", "groupLabel": "Satisfied"}
{"sequenceChain": "AUCAAGCAAUAUUACGGAUU", "groupLabel": "Not satisfied"}
{"sequenceChain": "ACUAAGCAAUAUUACGGGCU", "groupLabel": "Satisfied"}
{"sequenceChain": "CGCUAGCAAUAUUACGUUGA", "groupLabel": "Not satisfied"}
{"sequenceChain": "UUAUAGCAAUAUUACGAGUG", "groupLabel": "Satisfied"}
{"sequenceChain": "ACUCAGCAAUAUUACGAUCG", "groupLabel": "Satisfied"}
{"sequenceChain": "UGCUAGCAAUAUUACGGUAG", "groupLabel": "Satisfied"}
{"sequenceChain": "UGUGAGCAAUAUUACGACAG", "groupLabel": "Satisfied"}
{"sequenceChain": "AGAAAGCAAUAUUACGCGCC", "groupLabel": "Satisfied"}
